Assignment: determine reported IC50 for the given molecules.
# measured_target: human orexin-2 receptor (Homo sapiens (Human))
# Sequence (O43614 whole entry): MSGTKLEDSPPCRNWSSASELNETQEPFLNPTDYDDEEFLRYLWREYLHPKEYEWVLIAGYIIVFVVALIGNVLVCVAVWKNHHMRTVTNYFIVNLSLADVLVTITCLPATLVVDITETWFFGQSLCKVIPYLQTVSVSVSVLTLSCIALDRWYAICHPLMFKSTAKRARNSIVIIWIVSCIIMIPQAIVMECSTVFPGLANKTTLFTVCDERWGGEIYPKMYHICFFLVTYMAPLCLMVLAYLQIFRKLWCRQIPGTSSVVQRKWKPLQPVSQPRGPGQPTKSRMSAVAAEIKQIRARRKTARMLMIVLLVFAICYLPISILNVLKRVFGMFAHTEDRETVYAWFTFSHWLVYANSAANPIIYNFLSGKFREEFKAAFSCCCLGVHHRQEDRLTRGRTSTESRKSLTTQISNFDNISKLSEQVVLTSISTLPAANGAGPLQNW
# method_notes: hOX2R FLIPR Ca2+ flux assay
# run_conditions: CHO cells expressing the receptor; agonist 70 pM Ala-6,12 human orexin-A
Answer in nM, number only, no unit symbol.

Input: Dear colleague, I am looking for the recorded IC50 of the following molecule: N#Cc1ccnc(N2CC[C@H]3CCN(C(=O)c4ccccc4OC(F)(F)F)C[C@H]32)c1 (stereo in doubt)
Output: 79.1

Input: Dear colleague, I am looking for the recorded IC50 of the following molecule: Cc1cc(C)nc(N2CC[C@@H]3CCN(C(=O)c4ccccc4-n4nccn4)C[C@@H]32)n1
Output: 163

Input: Dear colleague, I am looking for the recorded IC50 of the following molecule: N#Cc1ccnc(N2CC[C@@H]3CCN(C(=O)c4ccccc4N4CCCC4)C[C@@H]32)c1
Output: 98.9

Input: Dear colleague, I am looking for the recorded IC50 of the following molecule: N#Cc1ccnc(N2CC[C@@H]3CCN(C(=O)c4ccccc4OCC(F)F)C[C@@H]32)c1
Output: 139

Input: Dear colleague, I am looking for the recorded IC50 of the following molecule: N#Cc1ccnc(N2CC[C@@H]3CCN(C(=O)c4ncccc4-c4ccccc4)C[C@@H]32)c1
Output: 76.9

Input: Dear colleague, I am looking for the recorded IC50 of the following molecule: N#Cc1ccnc(N2CC[C@H]3CCN(C(=O)c4nccnc4-n4cccn4)C[C@H]32)c1 (stereo in doubt)
Output: 117

Input: Dear colleague, I am looking for the recorded IC50 of the following molecule: N#Cc1ccnc(N2CC[C@@H]3CCN(C(=O)c4ccccc4C4CC4)C[C@@H]32)c1
Output: 81.6

Input: Dear colleague, I am looking for the recorded IC50 of the following molecule: Cc1c(C#N)ccnc1N1CC[C@@H]2CCN(C(=O)c3ccccc3-n3nccn3)C[C@@H]21
Output: 84.8

Input: Dear colleague, I am looking for the recorded IC50 of the following molecule: N#Cc1ccnc(N2CC[C@@H]3CCN(C(=O)c4cccnc4-c4ccccc4)C[C@@H]32)c1
Output: 93.8
